Assay: in vitro
Conditions: PAMPA, PAMPA_Papp_Avg
Where a SMILES comes first, the peptide text is derived from it. [ ]: non-standard residue; d: D form. NMeF = CN[C@@H](Cc1ccccc1)C(=O)O; NMeL = CN[C@@H](CC(C)C)C(=O)O; dNMeL = CN[C@H](CC(C)C)C(=O)O

molecule	Papp (×10⁻⁶ cm/s)
CC[C@@H](C)[C@H]1NC(=O)[C@H]2CCCN2C(=O)[C@H]([C@@H](C)CC)NC(=O)[C@H](CC(C)C)N(C)C(=O)[C@H]2CCCN2C(=O)[C@@H]2CCCN2C(=O)[C@H](Cc2ccccc2)N(C)C(=O)[C@H](Cc2ccccc2)NC(=O)[C@H]([C@@H](C)CC)NC1=O [Design D9.13, DPRO DILE ILE PHE *PHE PRO DPRO *LEU ILE] (cyclo(F[NMeF]P[dP][NMeL]I[dP][dI]I))	3.37
CC(C)C[C@@H]1C(=O)N(C)[C@H](CC(C)C)C(=O)N[C@H](CC(C)C)C(=O)N[C@@H](C(C)C)C(=O)N2CCC[C@@H]2C(=O)N2CCC[C@H]2C(=O)N[C@H](CC(C)C)C(=O)N[C@@H](C(C)C)C(=O)N1C [Design D8.23, DLEU VAL *DLEU *DLEU DLEU VAL DPRO PRO] (cyclo([dL]V[dNMeL][dNMeL][dL]V[dP]P))	1.28
CC[C@H](C)[C@@H]1NC(=O)[C@@H](CC(C)C)N(C)C(=O)[C@H](CC(C)C)N(C)C(=O)[C@@H](Cc2ccccc2)NC(=O)[C@@H](CC(C)C)N(C)C(=O)[C@H]2CCCN2C(=O)[C@H]2CCCN2C(=O)[C@@H]2CCCN2C(=O)[C@@H](C(C)C)NC(=O)[C@@H]2CCCN2C(=O)[C@H](C)NC1=O [Design D11.11] (cyclo(AP[dV]P[dP][dP][dNMeL][dF][NMeL][dNMeL]I))	2.26

----------
Experiment: Pharmacokinetics and oral bioavailability of D8.3.p1 and D10.1 in Balb/C female mice (PO, SQ, IV)
Format: in vivo
Settings: female, Balb/C, mouse, plasma, po, 12.2 mg/kg, D10.1 PO 12.2 mg/kg, mean n=3; read-out: Half-life T1/2
measure: half-life (h)

compound	measure	measured_value
CC[C@H](C)[C@@H]1NC(=O)[C@@H](CC(C)C)NC(=O)[C@H](CC(C)C)N(C)C(=O)[C@H](Cc2ccccc2)NC(=O)CN(C)C(=O)[C@@H]2CCCN2C(=O)[C@H](C(C)C)NC(=O)[C@H](Cc2ccccc2)N(C)C(=O)[C@H]2CCCN2C(=O)[C@H](CC(C)C)NC1=O [Design D10.1]	half-life	1

----------
System: Caco-2 cells
Test: Caco-2 permeability assay (apical to basolateral)
Format: in vitro ADME, human
Details: Caco-2
Where a SMILES comes first, the peptide text is derived from it. [ ]: non-standard residue; d: D form. NMeL = CN[C@@H](CC(C)C)C(=O)O; dNMeL = CN[C@H](CC(C)C)C(=O)O; dNMeA = CN[C@H](C)C(=O)O
// reported Caco_R1 for each item listed

compound	Caco_R1
CC(C)C[C@@H]1C(=O)N(C)[C@@H](CC(C)C)C(=O)N2CCC[C@@H]2C(=O)N[C@H](CC(C)C)C(=O)N[C@H](C)C(=O)N2CCC[C@@H]2C(=O)N2CCC[C@H]2C(=O)N[C@@H](C)C(=O)N[C@H](Cc2ccccc2)C(=O)N[C@H](CC(C)C)C(=O)N[C@@H](C(C)C)C(=O)N1C (single isomer, unassigned) [Design D11.9.p2]	2.62
CC(C)C[C@@H]1NC(=O)[C@H](CC(C)C)N(C)C(=O)[C@H]2CCCN2C(=O)[C@@H](C)NC(=O)[C@@H](C)N(C)C(=O)[C@@H](C(C)C)NC(=O)[C@@H](CC(C)C)N(C)C(=O)[C@@H]2CCCN2C1=O [Design D8.30, DALA DPRO *LEU LEU PRO *DLEU DVAL *DALA] (cyclo(LP[dNMeL][dV][dNMeA][dA][dP][NMeL]))	4.11
CC[C@@H](C)[C@H]1NC(=O)[C@@H]2CCCN2C(=O)[C@@H]([C@H](C)CC)NC(=O)[C@@H](C)N(C)C(=O)[C@H](CC(C)C)NC(=O)[C@@H](Cc2ccccc2)NC(=O)[C@H](CC(C)C)N(C)C(=O)[C@H]2CCCN2C(=O)[C@@H](CC(C)C)NC(=O)[C@H](CC(C)C)NC(=O)[C@H]2CCCN2C1=O [Design D11.1] (cyclo(L[dL][dP][NMeL][dF]L[dNMeA][dI]P[dI][dP]))	2.39
